Test: Pharmacokinetic study after single oral (gavage) and intravenous administration in rats
Conditions: male, Wistar, rat, in vivo, iv, 5 mg/kg
Where a SMILES comes first, the peptide text is derived from it.

>  <Compound>
CC[C@H](C)[C@@H]1NC(=O)[C@@H]2CCCN2C(=O)[C@@H]2CCCN2C(=O)[C@H](CC(=O)O)NC(=O)[C@H](CO)NC(=O)[C@H](CCCCN)NC(=O)[C@H]([C@@H](C)O)NC(=O)[C@@H]2CSSC[C@H](NC1=O)C(=O)N[C@@H](Cc1ccccc1)C(=O)N1CCC[C@@H]1C(=O)N1CCC[C@H]1C(=O)N[C@@H](CCCNC(=N)N)C(=O)N2 [Ex. 75] (HELM PEPTIDE1{R.C.T.K.S.D.P.P.I.C.F.[dP].P}$PEPTIDE1,PEPTIDE1,2:R3-10:R3|PEPTIDE1,PEPTIDE1,1:R1-13:R2$$$V2.0)

>  <Measurement Units>
min

>  <half-life>
30

$$$$

====

Target: Chymotrypsin, from human pancreas (Homo sapiens, UniProt P17538)
Sequence (P17538 19-263): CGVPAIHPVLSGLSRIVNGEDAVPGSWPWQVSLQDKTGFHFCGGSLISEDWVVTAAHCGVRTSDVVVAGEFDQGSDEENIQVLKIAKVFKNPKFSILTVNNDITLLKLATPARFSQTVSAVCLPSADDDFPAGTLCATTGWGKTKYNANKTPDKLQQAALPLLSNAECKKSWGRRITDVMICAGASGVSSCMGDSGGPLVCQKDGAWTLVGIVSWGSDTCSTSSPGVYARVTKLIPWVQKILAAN
Experiment: Enzymatic assay, chymotrypsin
Details: at 100 μM
Where a SMILES comes first, the peptide text is derived from it.

>  <Compound>
CC[C@H](C)[C@@H]1NC(=O)[C@@H]2CCCN2C(=O)[C@@H]2CCCN2C(=O)[C@H](CC(=O)O)NC(=O)[C@H](CO)NC(=O)[C@H](CCCCN)NC(=O)[C@H]([C@@H](C)O)NC(=O)[C@@H]2CSSC[C@H](NC1=O)C(=O)N[C@@H](CO)C(=O)N1CCC[C@@H]1C(=O)N[C@@H](CC(=O)O)C(=O)N[C@@H](Cc1ccccc1)C(=O)N2 [Ex. 47] (HELM PEPTIDE1{F.C.T.K.S.D.P.P.I.C.S.[dP].D}$PEPTIDE1,PEPTIDE1,2:R3-10:R3|PEPTIDE1,PEPTIDE1,1:R1-13:R2$$$V2.0)

>  <Chymotrypsin at 100 μM % [%]>
1

$$$$
>  <Compound>
CC[C@@H](C)[C@H]1NC(=O)[C@H](CO)NC(=O)[C@@H]2CSSC[C@H](NC(=O)[C@H](Cc3ccccc3)NC(=O)[C@@H]3CCCN3C1=O)C(=O)N[C@@H]([C@@H](C)O)C(=O)N[C@@H](CCCCN)C(=O)N[C@@H](CO)C(=O)N[C@@H](CC(=O)O)C(=O)N1CCC[C@H]1C(=O)N1CCC[C@H]1C(=O)N[C@@H]([C@@H](C)CC)C(=O)N2 [Ex. 50] (HELM PEPTIDE1{F.C.T.K.S.D.P.P.I.C.S.[dI].P}$PEPTIDE1,PEPTIDE1,2:R3-10:R3|PEPTIDE1,PEPTIDE1,1:R1-13:R2$$$V2.0)

>  <Chymotrypsin at 100 μM % [%]>
0

$$$$

====

Target: Chymotrypsin, from human pancreas (Homo sapiens, UniProt P17538)
Assay: Enzymatic assay, chymotrypsin
Conditions: at 100 μM
Where a SMILES comes first, the peptide text is derived from it.
Measure Name: Chymotrypsin at 100 μM % (%)

>  <Compound>
CCCC[C@@H]1NC(=O)[C@@H]2CCCN2C(=O)[C@H]2CCCN2C(=O)[C@H](Cc2ccc(O)cc2)NC(=O)[C@@H]2CSSC[C@H](NC1=O)C(=O)N[C@@H]([C@@H](C)O)C(=O)N[C@@H](C)C(=O)N[C@@H](CO)C(=O)N[C@@H](C1CCCCC1)C(=O)N1CCC[C@H]1C(=O)N1CCC[C@H]1C(=O)N[C@@H](CCC(N)=O)C(=O)N2 [Ex. 140] (HELM PEPTIDE1{[Nle].C.T.A.S.[O=C([C@@H](N[*:1])C1CCCCC1)[*:2]].P.P.Q.C.Y.[dP].P}$PEPTIDE1,PEPTIDE1,2:R3-10:R3|PEPTIDE1,PEPTIDE1,1:R1-13:R2$$$V2.0)

>  <Measurement Units>
%

>  <Numeric Value>
79.6

$$$$
>  <Compound>
CC[C@H](C)[C@@H]1NC(=O)[C@@H]2CCCN2C(=O)[C@@H]2CCCN2C(=O)[C@H](CC(=O)O)NC(=O)[C@H](CO)NC(=O)[C@H](CCCCN)NC(=O)[C@H]([C@@H](C)O)NC(=O)[C@@H]2CSSC[C@H](NC1=O)C(=O)N[C@@H]([C@@H](C)O)C(=O)N1CCC[C@@H]1C(=O)N1CCC[C@H]1C(=O)N[C@@H](C1CCCCC1)C(=O)N2 [Ex. 38] (HELM PEPTIDE1{[O=C([C@@H](N[*:1])C1CCCCC1)[*:2]].C.T.K.S.D.P.P.I.C.T.[dP].P}$PEPTIDE1,PEPTIDE1,2:R3-10:R3|PEPTIDE1,PEPTIDE1,1:R1-13:R2$$$V2.0)

>  <Measurement Units>
%

>  <Numeric Value>
4

$$$$

====

Biological target: Tryptase, from human lung
Assay: Enzymatic assay, tryptase
Settings: read-out: Tryptase IC50
Where a SMILES comes first, the peptide text is derived from it.
IC50 by entry:

>  <Compound>
CC(C)C[C@@H]1NC(=O)[C@H](CO)NC(=O)[C@H](CCCCN)NC(=O)[C@H]([C@@H](C)O)NC(=O)[C@@H]2CSSC[C@H](NC(=O)[C@H](CCCCN)NC(=O)[C@@H]3CCCN3C(=O)[C@@H]3CCCN3C1=O)C(=O)N[C@@H](CCCNC(=N)N)C(=O)N1CCC[C@@H]1C(=O)N1CCC[C@H]1C(=O)N[C@@H](CC1CCCCC1)C(=O)N2 [Ex. 193] (HELM PEPTIDE1{[Cha].C.T.K.S.L.P.P.K.C.R.[dP].P}$PEPTIDE1,PEPTIDE1,2:R3-10:R3|PEPTIDE1,PEPTIDE1,1:R1-13:R2$$$V2.0)

>  <Measurement Units>
nM

>  <Qual>
=

>  <IC50>
6

$$$$
>  <Compound>
CC[C@H](C)[C@@H]1NC(=O)[C@@H]2CCCN2C(=O)[C@H]2CCCN2C(=O)[C@H](CCCNC(=N)N)NC(=O)[C@@H]2CSSC[C@H](NC1=O)C(=O)N[C@@H]([C@@H](C)O)C(=O)N[C@@H](CCCCN)C(=O)N[C@@H](CO)C(=O)N[C@@H](CC1CCCCC1)C(=O)N1CCC[C@H]1C(=O)N1CCC[C@H]1C(=O)N[C@@H]([C@@H](C)CC)C(=O)N2 [Ex. 182] (HELM PEPTIDE1{I.C.T.K.S.[Cha].P.P.I.C.R.[dP].P}$PEPTIDE1,PEPTIDE1,2:R3-10:R3|PEPTIDE1,PEPTIDE1,1:R1-13:R2$$$V2.0)

>  <Measurement Units>
nM

>  <Qual>
=

>  <IC50>
39

$$$$
>  <Compound>
CC[C@H](C)[C@@H]1NC(=O)[C@@H]2CCCN2C(=O)[C@@H]2CCCN2C(=O)[C@H](CC(C)C)NC(=O)[C@H](CO)NC(=O)[C@H](CCCCN)NC(=O)[C@H]([C@@H](C)O)NC(=O)[C@@H]2CSSC[C@H](NC1=O)C(=O)N[C@@H](CCCNC(=N)N)C(=O)N1CCC[C@@H]1C(=O)N1CCC[C@H]1C(=O)N[C@@H](Cc1ccccc1)C(=O)N2 [Ex. 184] (HELM PEPTIDE1{F.C.T.K.S.L.P.P.I.C.R.[dP].P}$PEPTIDE1,PEPTIDE1,2:R3-10:R3|PEPTIDE1,PEPTIDE1,1:R1-13:R2$$$V2.0)

>  <Measurement Units>
nM

>  <Qual>
=

>  <IC50>
27

$$$$
>  <Compound>
CC(C)C[C@@H]1NC(=O)[C@H](CO)NC(=O)[C@H](CCCCN)NC(=O)[C@H]([C@@H](C)O)NC(=O)[C@@H]2CSSC[C@H](NC(=O)[C@H](CCCCN)NC(=O)[C@@H]3CCCN3C(=O)[C@@H]3CCCN3C1=O)C(=O)N[C@@H](CCCNC(=N)N)C(=O)N1CCC[C@@H]1C(=O)N1CCC[C@H]1C(=O)N[C@@H](Cc1ccc(O)cc1)C(=O)N2 [Ex. 194] (HELM PEPTIDE1{Y.C.T.K.S.L.P.P.K.C.R.[dP].P}$PEPTIDE1,PEPTIDE1,2:R3-10:R3|PEPTIDE1,PEPTIDE1,1:R1-13:R2$$$V2.0)

>  <Measurement Units>
nM

>  <Qual>
=

>  <IC50>
9

$$$$
>  <Compound>
CC[C@H](C)[C@@H]1NC(=O)[C@@H]2CCCN2C(=O)[C@H]2CCCN2C(=O)[C@H](CCCNC(=N)N)NC(=O)[C@@H]2CSSC[C@H](NC1=O)C(=O)N[C@@H]([C@@H](C)O)C(=O)N[C@@H](CCCCN)C(=O)N[C@@H](CO)C(=O)N[C@@H](CC(C)C)C(=O)N1CCC[C@H]1C(=O)N1CCC[C@H]1C(=O)N[C@@H](CCCCN)C(=O)N2 [Ex. 186] (HELM PEPTIDE1{I.C.T.K.S.L.P.P.K.C.R.[dP].P}$PEPTIDE1,PEPTIDE1,2:R3-10:R3|PEPTIDE1,PEPTIDE1,1:R1-13:R2$$$V2.0)

>  <Measurement Units>
nM

>  <Qual>
=

>  <IC50>
15

$$$$
>  <Compound>
CC[C@H](C)[C@@H]1NC(=O)[C@@H]2CCCN2C(=O)[C@H]2CCCN2C(=O)[C@H](CCCNC(=N)N)NC(=O)[C@@H]2CSSC[C@H](NC1=O)C(=O)N[C@@H]([C@@H](C)O)C(=O)N[C@@H](CCCCN)C(=O)N[C@@H](CO)C(=O)N[C@@H](CC(C)C)C(=O)N1CCC[C@H]1C(=O)N1CCC[C@H]1C(=O)N[C@@H]([C@@H](C)O)C(=O)N2 [Ex. 189] (HELM PEPTIDE1{I.C.T.K.S.L.P.P.T.C.R.[dP].P}$PEPTIDE1,PEPTIDE1,2:R3-10:R3|PEPTIDE1,PEPTIDE1,1:R1-13:R2$$$V2.0)

>  <Measurement Units>
nM

>  <Qual>
<

>  <IC50>
100

$$$$
>  <Compound>
CC[C@H](C)[C@@H]1NC(=O)[C@@H]2CCCN2C(=O)[C@H]2CCCN2C(=O)[C@H](CCCNC(=N)N)NC(=O)[C@@H]2CSSC[C@H](NC1=O)C(=O)N[C@@H]([C@@H](C)O)C(=O)N[C@@H](CCCCN)C(=O)N[C@@H](CO)C(=O)N[C@@H](CC(C)C)C(=O)N1CCC[C@H]1C(=O)N1CCC[C@H]1C(=O)N[C@@H](CCC(N)=O)C(=O)N2 [Ex. 188] (HELM PEPTIDE1{I.C.T.K.S.L.P.P.Q.C.R.[dP].P}$PEPTIDE1,PEPTIDE1,2:R3-10:R3|PEPTIDE1,PEPTIDE1,1:R1-13:R2$$$V2.0)

>  <Measurement Units>
nM

>  <Qual>
<

>  <IC50>
100

$$$$
>  <Compound>
CC(C)C[C@@H]1NC(=O)[C@@H]2CCCN2C(=O)[C@H]2CCCN2C(=O)[C@H](CCCNC(=N)N)NC(=O)[C@@H]2CSSC[C@H](NC1=O)C(=O)N[C@@H]([C@@H](C)O)C(=O)N[C@@H](CCCCN)C(=O)N[C@@H](CO)C(=O)N[C@@H](CC(C)C)C(=O)N1CCC[C@H]1C(=O)N1CCC[C@H]1C(=O)N[C@@H](CCCCN)C(=O)N2 [Ex. 191] (HELM PEPTIDE1{L.C.T.K.S.L.P.P.K.C.R.[dP].P}$PEPTIDE1,PEPTIDE1,2:R3-10:R3|PEPTIDE1,PEPTIDE1,1:R1-13:R2$$$V2.0)

>  <Measurement Units>
nM

>  <Qual>
=

>  <IC50>
21

$$$$

Data origin: patent US8658604B2
